- setup-conditions: mouse, microsomes, 0.5 h, 2 µM

molecule | Stability
O=S(=O)(c1ccc(Cl)cc1)N1C2Cc3[nH]ncc3C1CC(/C=C\Cl)C2 (configuration not stated) | Not Active
O=S(=O)(c1ccc(Cl)cc1)N1C2Cc3[nH]ncc3C1CC(/C=C\C(F)(F)F)C2 (configuration not stated) | Not Active
O=C(O)C1CC2Cc3[nH]ncc3C(C1)N2S(=O)(=O)c1ccc(Cl)cc1 (configuration not stated) | Not Active
Cl.O=S(=O)(c1ccc(Cl)cc1)N1C2COCC1c1cn[nH]c1C2 (configuration not stated) | 94%
CN(C)C(=O)N1CC2Cc3[nH]ncc3C(C1)N2S(=O)(=O)c1ccc(Cl)cc1 (configuration not stated) | Not Active
N#CC1CC2Cc3[nH]ncc3C(C1)N2S(=O)(=O)c1ccc(Cl)cc1 (stereo in doubt; form 2) | Not Active
O=S(=O)(c1ccc(Cl)cc1)N1C2COCC1c1cn[nH]c1C2 (stereo in doubt) | 100%

====

- assay-details: in vitro
- setup-conditions: mouse, liver microsomes
observed-property: remaining at 0.5 h, 2 µM (%)

compound | observed-property | numeric-value
CS(=O)(=O)N1CC2Cc3[nH]ncc3C(C1)N2S(=O)(=O)c1ccc(Cl)cc1 (stereo unspecified) | remaining at 0.5 h, 2 µM | 96

====

- assay-details: in vitro
- setup-conditions: human, liver microsomes, Stability

compound | uom | remaining at 0.5 h, 1 µM
O=S(=O)(c1ccc(Cl)cc1)N1C2Cc3[nH]ncc3C1CC(/C=C\Cl)C2 (configuration not stated) | % | 14
O=S(=O)(c1ccc(Cl)cc1)N1C2Cc3[nH]ncc3C1CC(/C=C/C(F)(F)F)C2 (configuration not stated) | % | 6
O=S(=O)(c1ccc(Cl)cc1)N1C2Cc3[nH]ncc3C1CC(/C=C\C(F)(F)F)C2 (configuration not stated) | % | 38
O=S(=O)(c1ccc(Cl)cc1)N1C2CCCC1c1cn[nH]c1C2 (configuration not stated) | % | 48
CN(C)C(=O)N1CC2Cc3[nH]ncc3C(C1)N2S(=O)(=O)c1ccc(Cl)cc1 (configuration not stated) | % | 86
O=S(=O)(c1ccc(Cl)cc1)N1C2Cc3[nH]ncc3C1CC(/C=C/Cl)C2 (configuration not stated) | % | 6
N#CC1CC2Cc3[nH]ncc3C(C1)N2S(=O)(=O)c1ccc(Cl)cc1 (stereo in doubt; form 2) | % | 68

====

- assay-details: in vitro
- setup-conditions: mouse, liver microsomes, Stability
# Lookup of reported remaining at 0.5 h, 2 µM keyed by entry
observed-property: remaining at 0.5 h, 2 µM (%)

molecule | observed-property | uom | numeric-value
O=S(=O)(c1ccc(Cl)cc1)N1C2Cc3[nH]ncc3C1CC(/C=C/C(F)(F)F)C2 (stereo not given) | remaining at 0.5 h, 2 µM | % | 39
N#CC1CC2Cc3[nH]ncc3C(C1)N2S(=O)(=O)c1ccc(Cl)cc1 (stereo in doubt) | remaining at 0.5 h, 2 µM | % | 81
O=S(=O)(c1ccc(Cl)cc1)N1C2CCCC1c1cn[nH]c1C2 (stereo not given) | remaining at 0.5 h, 2 µM | % | 5
O=S(=O)(c1ccc(Cl)cc1)N1C2Cc3[nH]ncc3C1CC(/C=C/Cl)C2 (stereo not given) | remaining at 0.5 h, 2 µM | % | 37
O=S(=O)(c1ccc(Cl)cc1)N1C2COCC1c1cn[nH]c1C2 (stereo in doubt; 32) | remaining at 0.5 h, 2 µM | % | 93

====

- setup-conditions: mouse, microsomes, 0.5 h, 1 µM
The following compounds are shown together with reported Stability values.

compound | Stability (%)
N#CC1CC2Cc3[nH]ncc3C(C1)N2S(=O)(=O)c1ccc(Cl)cc1 (stereo in doubt; form 1) | 80
Cl.O=S(=O)(c1ccc(Cl)cc1)N1C2COCC1c1cn[nH]c1C2 (stereo not given) | 78
N#CC1CC2Cc3[nH]ncc3C(C1)N2S(=O)(=O)c1ccc(Cl)cc1 (stereo in doubt) | 74
O=S(=O)(c1ccc(Cl)cc1)N1C2COCC1c1cn[nH]c1C2 (stereo in doubt) | 80

====

- assay-details: Half life in rat
- Format: ADME, organism-based
- setup-conditions: in vivo
Below is a list of entries, each paired with its recorded half-life value.
observed-property: half-life (h)

molecule | numeric-value
O=S(=O)(c1ccc(Cl)cc1)N1C2COCC1c1cn[nH]c1C2 (stereo in doubt) | 1.15
O=S(=O)(c1ccc(Cl)cc1)N1C2CCCC1c1cn[nH]c1C2 (stereo not drawn) | 0.4
N#CC1CC2Cc3[nH]ncc3C(C1)N2S(=O)(=O)c1ccc(Cl)cc1 (stereo in doubt) | 1.02

====

- assay-details: AUC in rat
- Assay type: ADME, organism-based
- setup-conditions: plasma

compound | AUC / µM·h
N#CC1CC2Cc3[nH]ncc3C(C1)N2S(=O)(=O)c1ccc(Cl)cc1 (stereo in doubt) | 3.4
O=S(=O)(c1ccc(Cl)cc1)N1C2CCCC1c1cn[nH]c1C2 (stereo not drawn) | 0.16
O=S(=O)(c1ccc(Cl)cc1)N1C2COCC1c1cn[nH]c1C2 (stereo in doubt) | 2.9

====

- assay-details: in vitro
- setup-conditions: mouse, liver microsomes

molecule | remaining at 0.5 h, 1 µM, %
CS(=O)(=O)N1CC2Cc3[nH]ncc3C(C1)N2S(=O)(=O)c1ccc(Cl)cc1 (stereo unspecified) | 80

====

- assay-details: in vitro
- setup-conditions: mouse, liver microsomes, Stability
observed-property: remaining at 0.5 h, 1 µM (%)

compound | uom | numeric-value
CN(C)C(=O)N1CC2Cc3[nH]ncc3C(C1)N2S(=O)(=O)c1ccc(Cl)cc1 (stereo not drawn) | % | 56
O=S(=O)(c1ccc(Cl)cc1)N1C2Cc3[nH]ncc3C1CC(/C=C/Cl)C2 (stereo not drawn) | % | 7
O=S(=O)(c1ccc(Cl)cc1)N1C2Cc3[nH]ncc3C1CC(/C=C\Cl)C2 (stereo not drawn) | % | 3
N#CC1CC2Cc3[nH]ncc3C(C1)N2S(=O)(=O)c1ccc(Cl)cc1 (stereo in doubt; form 2) | % | 86
O=S(=O)(c1ccc(Cl)cc1)N1C2Cc3[nH]ncc3C1CC(/C=C\C(F)(F)F)C2 (stereo not drawn) | % | 17
O=S(=O)(c1ccc(Cl)cc1)N1C2CCCC1c1cn[nH]c1C2 (stereo not drawn) | % | 15
O=S(=O)(c1ccc(Cl)cc1)N1C2Cc3[nH]ncc3C1CC(/C=C/C(F)(F)F)C2 (stereo not drawn) | % | 36
O=S(=O)(c1ccc(Cl)cc1)N1C2COCC1c1cn[nH]c1C2 (stereo in doubt; 32) | % | 75

====

Quick list: clearance per entry.
- assay-details: Clearance in rat
- Assay type: ADME, organism-based
- setup-conditions: in vivo

compound | clearance (mL/min/kg)
N#CC1CC2Cc3[nH]ncc3C(C1)N2S(=O)(=O)c1ccc(Cl)cc1 (stereo in doubt) | 28.4
O=S(=O)(c1ccc(Cl)cc1)N1C2COCC1c1cn[nH]c1C2 (stereo in doubt) | 31.2
O=S(=O)(c1ccc(Cl)cc1)N1C2CCCC1c1cn[nH]c1C2 (stereo not drawn) | 38.9

====

- Test system: Liver microsomes
- setup-conditions: human, 0.5 h, 2 µM

compound | Stability
N#CC1CC2Cc3[nH]ncc3C(C1)N2S(=O)(=O)c1ccc(Cl)cc1 (stereo in doubt; form 2) | Not Active
O=S(=O)(c1ccc(Cl)cc1)N1C2Cc3[nH]ncc3C1CC(/C=C\Cl)C2 (configuration not stated) | Not Active
O=S(=O)(c1ccc(Cl)cc1)N1C2Cc3[nH]ncc3C1CC(/C=C\C(F)(F)F)C2 (configuration not stated) | Not Active
O=S(=O)(c1ccc(Cl)cc1)N1C2COCC1c1cn[nH]c1C2 (stereo in doubt) | 86%
CN(C)C(=O)N1CC2Cc3[nH]ncc3C(C1)N2S(=O)(=O)c1ccc(Cl)cc1 (configuration not stated) | Not Active
Cl.O=S(=O)(c1ccc(Cl)cc1)N1C2COCC1c1cn[nH]c1C2 (configuration not stated) | 71%
O=C(O)C1CC2Cc3[nH]ncc3C(C1)N2S(=O)(=O)c1ccc(Cl)cc1 (configuration not stated) | Not Active

====

- assay-details: in vitro
- setup-conditions: human, liver microsomes

compound | remaining at 0.5 h, 1 µM (%)
CS(=O)(=O)N1CC2Cc3[nH]ncc3C(C1)N2S(=O)(=O)c1ccc(Cl)cc1 (stereo unspecified) | 84

====

- assay-details: in vitro
- setup-conditions: human, liver microsomes, Stability
One threshold, 40%, splits the recorded remaining at 0.5 h, 2 µM values: lower ones are fulfilled, equal or higher ones are not fulfilled.

compound | label
O=S(=O)(c1ccc(Cl)cc1)N1C2COCC1c1cn[nH]c1C2 (stereo in doubt; 32) | not fulfilled
N#CC1CC2Cc3[nH]ncc3C(C1)N2S(=O)(=O)c1ccc(Cl)cc1 (stereo in doubt) | not fulfilled
O=S(=O)(c1ccc(Cl)cc1)N1C2Cc3[nH]ncc3C1CC(/C=C/Cl)C2 (stereo not given) | fulfilled
O=S(=O)(c1ccc(Cl)cc1)N1C2CCCC1c1cn[nH]c1C2 (stereo not given) | fulfilled
O=S(=O)(c1ccc(Cl)cc1)N1C2Cc3[nH]ncc3C1CC(/C=C/C(F)(F)F)C2 (stereo not given) | fulfilled

Every entry's value here was drawn from ChEMBL document CHEMBL1156139.
